- Test system: KOPN-8 (B-Lymphoblastic Leukemia)
- assay.protocol: combination Emax (second highest fraction inhibited in the dose matrix, 72 h); higher = more inhibition; extreme values may be limits of the assay
endpoint.label: combination Emax
Answer field: number only, no words.

Challenge: Input NC1(C(=O)N[C@@H](CCO)c2ccc(Cl)cc2)CCN(c2ncnc3[nH]ccc23)CC1 [Capivasertib] + COc1nnc2ccc(N3CCC(c4ccc(OCCN5CCN(C)C(=O)[C@H]5C)cc4)CC3)nn12 [AZD5153] (first compound max 10 µM, 7x7, partner max 1 µM) , output reported combination Emax.
Response given: 0.992

Challenge: Input Cn1cnc2c(F)c(Nc3ccc(Br)cc3Cl)c(C(=O)NOCCO)cc21 [Selumetinib] + C[C@@H]1COCCN1C2=NC(=NC(=C2)C3(CC3)[S@](=N)(=O)C)C4=C5C=CNC5=NC=C4 [AZD6738] (first compound max 10 µM, 7x7, partner max 10 µM) , output reported combination Emax.
Response given: 1

Challenge: Input Cc1cc2ncnn2cc1Nc1ncc2c(n1)n(C1CCOCC1)c(=O)n2C [AZD7648] + C=CCn1c(=O)c2cnc(Nc3ccc(N4CCN(C)CC4)cc3)nc2n1-c1cccc(C(C)(C)O)n1 [AZD1775] (first compound max 10 µM, partner max 1 µM) , output reported combination Emax.
Response given: 0.903

Challenge: Input Cc1cc2ncnn2cc1Nc1ncc2c(n1)n(C1CCOCC1)c(=O)n2C [AZD7648] + O=C(c1cc(Cc2n[nH]c(=O)c3ccccc23)ccc1F)N1CCN(C(=O)C2CC2)CC1 [Olaparib] (first compound max 10 µM, 7x7, partner max 10 µM) , output reported combination Emax.
Response given: 0.68

Challenge: Input COc1nnc2ccc(N3CCC(c4ccc(OCCN5CCN(C)C(=O)[C@H]5C)cc4)CC3)nn12 [AZD5153] + Cn1cnc2c(F)c(Nc3ccc(Br)cc3Cl)c(C(=O)NOCCO)cc21 [Selumetinib] (first compound max 1 µM, 7x7, partner max 10 µM) , output reported combination Emax.
Response given: 1

Challenge: Input CC1(C)CCC(CN2CCN(c3ccc(C(=O)NS(=O)(=O)c4ccc(NCC5CCOCC5)c([N+](=O)[O-])c4)c(Oc4cnc5[nH]ccc5c4)c3)CC2)=C(c2ccc(Cl)cc2)C1 [Venetoclax] + C=CCn1c(=O)c2cnc(Nc3ccc(N4CCN(C)CC4)cc3)nc2n1-c1cccc(C(C)(C)O)n1 [AZD1775] (first compound max 1 µM, partner max 1 µM) , output reported combination Emax.
Response given: 1

Challenge: Input CCc1c2c(nc3ccc(O)cc13)-c1cc3c(c(=O)n1C2)COC(=O)[C@]3(O)CC [SN-38] + CN(C)CCCOc1ccc(-c2ccc3ncc4c(c3c2)n(C2CCOCC2)c(=O)n4C)cn1 [AZD0156] (first compound max 0.3 µM, 7x7, partner max 1 µM) , output reported combination Emax.
Response given: 0.957

====

- System: SK-LU-1 (Lung Adenocarcinoma)
- assay.protocol: combination Emax (second highest fraction inhibited in the dose matrix, 72 h); higher = more inhibition; extreme values may be limits of the assay
endpoint.label: combination Emax
Answer field: number only, no words.

Challenge: Input COc1cc2ncnc(Nc3ccc(F)c(Cl)c3)c2cc1OCCCN1CCOCC1 [Gefitinib] + CC(C)n1c(=O)n(C)c2cnc3cc(F)c(-c4ccc(OCCCN5CCCCC5)nc4)cc3c21 [AZD1390] (first compound max 10 µM, 7x7, partner max 0.3 µM) , output reported combination Emax.
Response given: 0.245

Challenge: Input Cc1c2c(nn1C)CSCc1cc(n(C)n1)CSc1cc(c3ccccc3c1)OCCCc1c(C(=O)O)n(C)c3c-2c(Cl)ccc13 [AZD5991] + CC(=O)O[C@H]1C(=O)[C@@]2(C)[C@H]([C@H](OC(=O)c3ccccc3)[C@]3(O)C[C@H](OC(=O)[C@H](O)[C@@H](NC(=O)c4ccccc4)c4ccccc4)C(C)=C1C3(C)C)[C@]1(OC(C)=O)CO[C@@H]1C[C@@H]2O [Paclitaxel] (first compound max 1 µM, 7x7, partner max 3 µM) , output reported combination Emax.
Response given: 0.39

Challenge: Input Cc1nc(-c2cn3c(n2)-c2ccc(-c4cnn(C(C)(C)C(N)=O)c4)cc2OCC3)n(C(C)C)n1 [Taselisib] + O=C(Nc1ccc2[nH]nc(-c3ccncc3)c2c1)[C@@H]1CCN(CC(=O)N2CCN(c3ccc(-c4ncccn4)cc3)CC2)C1 [SCH772984] (first compound max 10 µM, 7x7, partner max 5 µM) , output reported combination Emax.
Response given: 0.516

Challenge: Input C[C@@H](Oc1cc(-c2cnn(C3CCNCC3)c2)cnc1N)c1c(Cl)ccc(F)c1Cl [Crizotinib] + Cn1cnc2c(F)c(Nc3ccc(Br)cc3Cl)c(C(=O)NOCCO)cc21 [Selumetinib] (first compound max 10 µM, 7x7, partner max 10 µM) , output reported combination Emax.
Response given: 0.34

Challenge: Input COc1nnc2ccc(N3CCC(c4ccc(OCCN5CCN(C)C(=O)[C@H]5C)cc4)CC3)nn12 [AZD5153] + Cn1cnc2c(F)c(Nc3ccc(Br)cc3Cl)c(C(=O)NOCCO)cc21 [Selumetinib] (first compound max 1 µM, 7x7, partner max 10 µM) , output reported combination Emax.
Response given: 0.46

Challenge: Input C[C@@H](c1ccc2nccn2c1)n1nnc2ncc(-c3cnn(C)c3)nc21 [Savolitinib] + Cc1c2c(nn1C)CSCc1cc(n(C)n1)CSc1cc(c3ccccc3c1)OCCCc1c(C(=O)O)n(C)c3c-2c(Cl)ccc13 [AZD5991] (first compound max 1 µM, 7x7, partner max 1 µM) , output reported combination Emax.
Response given: 0.329

Challenge: Input Cc1c2c(nn1C)CSCc1cc(n(C)n1)CSc1cc(c3ccccc3c1)OCCCc1c(C(=O)O)n(C)c3c-2c(Cl)ccc13 [AZD5991] + C[C@@H](Nc1cc(F)cc(F)c1)c1cc(C(=O)N(C)C)cc2c(=O)cc(N3CCOCC3)oc12 [AZD8186] (first compound max 1 µM, 7x7, partner max 3 µM) , output reported combination Emax.
Response given: 0.384

====

- Tested on: NCI-H650 (Lung Adenocarcinoma)
- assay.protocol: combination Emax (second highest fraction inhibited in the dose matrix, 72 h); higher = more inhibition; extreme values may be limits of the assay
endpoint.label: combination Emax
Answer field: number only, no words.

Challenge: Input COc1cccc(OCCCN)c1-c1cc(Nc2cnc(C#N)cn2)n[nH]1 [Prexasertib] + C[C@@H]1COCCN1C2=NC(=NC(=C2)C3(CC3)[S@](=N)(=O)C)C4=C5C=CNC5=NC=C4 [AZD6738] (first compound max 1 µM, 7x7, partner max 10 µM) , output reported combination Emax.
Response given: 0.647

Challenge: Input CC(=O)c1c(C)c2cnc(Nc3ccc(N4CCNCC4)cn3)nc2n(C2CCCC2)c1=O [Palbociclib] + CC1(C)CCC(CN2CCN(c3ccc(C(=O)NS(=O)(=O)c4ccc(NCC5CCOCC5)c([N+](=O)[O-])c4)c(Oc4cnc5[nH]ccc5c4)c3)CC2)=C(c2ccc(Cl)cc2)C1 [Venetoclax] (first compound max 10 µM, 7x7, partner max 1 µM) , output reported combination Emax.
Response given: 0.172

Challenge: Input CC1(C)CCC(CN2CCN(c3ccc(C(=O)NS(=O)(=O)c4ccc(NCC5CCOCC5)c([N+](=O)[O-])c4)c(Oc4cnc5[nH]ccc5c4)c3)CC2)=C(c2ccc(Cl)cc2)C1 [Venetoclax] + Cn1cnc2c(F)c(Nc3ccc(Br)cc3Cl)c(C(=O)NOCCO)cc21 [Selumetinib] (first compound max 1 µM, 7x7, partner max 3 µM) , output reported combination Emax.
Response given: 0.239

Challenge: Input CN(C)CCCOc1ccc(-c2ccc3ncc4c(c3c2)n(C2CCOCC2)c(=O)n4C)cn1 [AZD0156] + C[C@@H]1COCCN1C2=NC(=NC(=C2)C3(CC3)[S@](=N)(=O)C)C4=C5C=CNC5=NC=C4 [AZD6738] (first compound max 1 µM, 7x7, partner max 10 µM) , output reported combination Emax.
Response given: 0.226

Challenge: Input CN(CCO)CC[C@H](CSc1ccccc1)Nc1ccc(S(=O)(=O)NC(=O)c2ccc(N3CCC([C@@H](O)c4ccccc4-c4ccc(Cl)cc4)CC3)cc2)cc1S(=O)(=O)C(F)(F)F [AZD4320] + CN(C)CCCOc1ccc(-c2ccc3ncc4c(c3c2)n(C2CCOCC2)c(=O)n4C)cn1 [AZD0156] (first compound max 1 µM, 7x7, partner max 1 µM) , output reported combination Emax.
Response given: 0.203

Challenge: Input CN(CCO)CC[C@H](CSc1ccccc1)Nc1ccc(S(=O)(=O)NC(=O)c2ccc(N3CCC([C@@H](O)c4ccccc4-c4ccc(Cl)cc4)CC3)cc2)cc1S(=O)(=O)C(F)(F)F [AZD4320] + C1CN(CCC1(C(=O)N[C@@H](CCO)C2=CC=C(C=C2)Cl)N)C3=NC=NC4=C3C=CN4 [Capivasertib] (first compound max 1 µM, 7x7, partner max 3 µM) , output reported combination Emax.
Response given: 0.134

Provenance of the data: the supplement of paper PMC11061612
